- System: biosynthesis of cholesterol (rat liver homogenate)
- experiment-notes: CSI screen (inhibition of sterol synthesis; incorporation of 14C-acetate into non-saponifiable lipid by rat liver homogenate)
- Assay type: biochemical
- particulars: 50% inhibition of sterol synthesis over a one-hour period
- Procedure: The ability of compounds of the present invention to inhibit the biosynthesis of cholesterol was measured by a method (designated CSI screen) which utilizes the procedure described by R. E. Dugan, et al, Archiv. Biochem. Biophys., (1972), 152, 21-27. […] The rat livers are homogenized, and the incorporation of […] into non-saponifiable lipid by the rat liver homogenate is measured. […]
Documented IC50 across a set of compounds

>>> measured("C=C1CC2(C)CC1C(c1ccccc1)=C2/C=C/[C@@H](O)C[C@@H](O)CC(=O)OCC (relative stereo)")
"440 nM"

Next compound, please.
Form: Entry = C=C1CC2(C)CC1C(c1ccccc1)=C2C=CC1CC(O)CC(=O)O1 (centres unmarked) | System = biosynthesis of cholesterol (rat liver homogenate) | IC50 = ____
440 nM
